# system: influenza A virus N2 sialidase [A/Paris/908/97 (H3N2)] (Influenza A virus)
quantityMeasured: Ki (µM)
Write the value in µM as a bare number.

[ask] // returns reported Ki for input CC(=O)N[C@H]1[C@H]([C@H](O)[C@H](O)CO)OC(C(=O)O)=C[C@@H]1O [Neu5Ac2en, reference compound]
[reply] 1.24
